Reference for the values: ChEMBL document CHEMBL4831511

// reported inhibition per item
- Species: Homo sapiens
- PROTOCOL SUMMARY: Inhibition of alpha-chymotrypsin-like activity of human 20S proteasome at 11 uM using Succ-Leu-Leu-Val-Tyr-AMC as fluorogenic substrate by microplate reader relative to control

Observe how each entry below is paired with its result.
| COMPOUND | inhibition |
| --- | --- |
| CN1CCN(C(=O)N[C@@H](Cc2ccccc2)C(=O)N[C@H](/C=C(\F)S(=O)(=O)c2ccccc2)CCc2ccccc2)CC1 | 13% |
| CN1CCN(C(=O)N[C@@H](Cc2ccccc2)C(=O)N[C@H](/C=C(\F)S(=O)(=O)c2ccccc2)CSCc2ccccc2)CC1 | 71% |

Could you now consider this next compound?
So what's the measured inhibition for this one? O=C(N[C@@H](Cc1ccccc1)C(=O)N[C@H](/C=C(\F)S(=O)(=O)c1ccccc1)CCc1ccccc1)c1ccncc1
10%
